Source: patent US20230212225A1

- Assay: PK study in monkey
- Assay type: in vivo
- Applied conditions: monkey plasma NX218 after bolus IV 10 mg/kg NX210; mean
Where a SMILES comes first, the peptide text is derived from it. Bridges are numbered along the chain shown (N, C = ends).
Attribute measured: Tmax (h)
Kindly provide the numeric value in h only, without the unit symbol.

Inquiry: // lookup Tmax for N=C(N)NCCC[C@@H]1NC(=O)[C@H](CO)NC(=O)[C@@H](NC(=O)[C@H](CO)NC(=O)[C@H](CO)NC(=O)[C@H](Cc2c[nH]c3ccccc23)NC(=O)CNC(=O)[C@H](CO)NC(=O)[C@@H](N)Cc2c[nH]c3ccccc23)CSSC[C@@H](C(=O)NCC(=O)O)NC(=O)[C@H](CO)NC1=O [NX218, W-S-G-W-S-S-C-S-R-S-C-G] (H-WSGWSSCSRSCG-OH; disulfide 7-11; N-terminus and C-terminus assumed)
Reply text: 0
